Below: a set of entries, each annotated with reported GI50.
- System: HCT-116
- ASSAY: NCI tumour cell line growth inhibition, 48 h
The source made the active and inactive calls. No stated cut-off is given here; in the data, active = GI50 up to about 1.1 µM and inactive = higher.

MOLECULE	GI50
O=c1[nH]nc(-c2cccc(Br)c2)[nH]1	> 100 µM (inactive)
CC(C)(C)N1CSC(=S)N(Cc2ccco2)C1	3.81 µM (inactive)
CCOC(=O)CC(=O)Nc1cccc2nc[nH]c12	> 100 µM (inactive)
COC1CC(OC2C(C)OC(OC3C(C)OC(OC4C(C)OC(O[C@H]5CC[C@@]6(C)C(=CC[C@]7(O)[C@@H]6C[C@@H](OC(=O)/C=C(\C)C(C)C)[C@@]6(C)[C@]7(O)CC[C@@]6(O)C(C)=O)C5)CC4OC)CC3OC)CC2OC)OC(C)C1O (some centres undefined)	> 12.5 µM (inactive)

Origin of the recorded values: ChEMBL document CHEMBL1201862
